Each recorded value in this set is attributed to PubChem BioAssay AID651593.

experiment: qHTS of Nrf2 Activators: Hit Validation in Primary Assay; further: nearly all actives have a fitted effect of over 70% in size
test settings: Nrf2/ARE reporter cell assay; activation; series mostly up to 46.1 µM
The campaign covered roughly 1,100 compounds. About 860 (78%) were called active. Another 19% or so got no clear call; they are omitted. The call rests on the fitted dose curve; in most records, active means well fitted activation curve with a large enough effect; inconclusive means small, poorly fitted or top-dose-only effect; inactive means flat fitted curve, though single readings scatter. The set was probably picked from earlier hits. This is one part of the list.
Pick from active, inactive when you respond.

Completed entries (count: 3):
>>> group("COc1cc(OC)c(NC(=O)c2ccco2)cc1Cl")
"active"
>>> group("COc1ccc(Cl)cc1C(=O)NC(=S)Nc1nc(C)cc(C)n1")
"inactive"
>>> group("O=C(CCS(=O)(=O)c1ccccc1)Nc1nc(-c2ccccn2)cs1")
"active"

Could you now look at the following compound, please?
Incoming: In this assay, the call recorded for O=C(CSc1nccc(-c2cccs2)n1)Nc1ccc(F)c(Cl)c1 was what?
Outgoing: active

----------
experiment: qHTS of Nrf2 Activators: Hit Validation in Primary Assay; further: nearly all actives have a fitted effect of over 70% in size
test settings: Nrf2/ARE reporter cell assay; activation; series mostly up to 46.1 µM
The campaign covered roughly 1,100 compounds. About 860 (78%) were called active. Inconclusive results (about 19%) are left out. Calls follow the shape of the dose curve; as a rule, active = well fitted activation curve with a large enough effect; inconclusive = small, poorly fitted or top-dose-only effect; inactive = flat fitted curve, though single readings scatter. So high a share suggests a set chosen from earlier hits. The list shows a part of the results.
In this exercise, the only acceptable responses are yes (1) (active), no (0) (inactive)

Consider the worked cases shown below.
>>> group("CCCc1nc([N+](=O)[O-])c(S(=O)(=O)c2ccccc2)n1CC(C)C")
"yes (1)"
>>> group("COC(=O)c1cc2nc(-c3ccccc3)cc(C(F)(F)F)n2n1")
"yes (1)"
>>> group("CCn1c(/C=C/c2ccccc2[N+](=O)[O-])nc2ccccc2c1=O")
"yes (1)"
>>> group("COc1ccc(O)c(-c2cc(-c3ccccc3Cl)[nH]n2)c1")
"yes (1)"

Incoming: Recorded test outcome, item N#CC1=C(N)Oc2c(ccc3ccccc23)C1c1ccsc1 (centres undefined)
Outgoing: no (0)

Incoming: GET /call?item= O=C(CN1CC(=O)Oc2ccccc21)OCC(=O)c1ccc(F)cc1 returns the recorded outcome of this test.
Outgoing: yes (1)

Incoming: Given O=C(N=Nc1c(O)[nH]c2ccccc12)c1ccco1 , state the outcome it received in this test.
Outgoing: yes (1)

Incoming: // outcome(item) with item = O=C(N=Nc1c(O)[nH]c2ccc(Br)cc12)c1ccco1
Outgoing: yes (1)

Incoming: Called result for CCn1c(/C=C/c2ccccc2F)nc2ccccc2c1=O
Outgoing: yes (1)

Incoming: Status in this test for CC(C)C(=O)Nc1nnc(-c2ccco2)s1 ?
Outgoing: yes (1)

Incoming: Just curious, what result did COc1ccc(O)c(-c2cc(-c3ccc(F)cc3)n[nH]2)c1 get here?
Outgoing: yes (1)

----------
experiment: qHTS of Nrf2 Activators: Hit Validation in Primary Assay; further: nearly all actives have a fitted effect of over 70% in size
test settings: Nrf2/ARE reporter cell assay; activation; series mostly up to 46.1 µM
Out of some 1,100 compounds screened, about 860 (78%) were called active. Inconclusive results (about 19%) are left out. The call rests on the fitted dose curve; in most records, active means well fitted activation curve with a large enough effect; inconclusive means small, poorly fitted or top-dose-only effect; inactive means flat fitted curve, though single readings scatter. The set was probably picked from earlier hits. The list shows a part of the results.
Hi there, use one of these labels in your reply, thanks! 1.0 for active, 0.0 for inactive

>>> group("O=C(N/N=C/c1ccco1)Nc1ccccc1")
1.0

Incoming: Hi team, can someone confirm the assay call for Cn1c(NC(=O)/C=C/c2ccccc2)cc(=O)n(C)c1=O ?
Outgoing: 1.0

Incoming: Field: outcome | Entry: CCCn1c(-c2cccs2)nc2nc3ccccc3nc21
Outgoing: 1.0

Incoming: Please share the test call associated with Cc1sc(NC(=S)NC(=O)c2ccccc2)c(C#N)c1C .
Outgoing: 0.0
